# assay details: Therapeutic index, ratio of IC50 for African green monkey Vero cells to IC50 for Plasmodium falciparum V1/S harboring DHFR N51I/C59R/S108N/I164L mutant
# Assay type: toxicity
# condition label: read-out: Ratio IC50
Mark yes only when selectivity ratio stays strictly below 50. Values equal to the cut-off are no.

Would you please look over these solved cases?
Query block: Given CC1N=C(N)N=C(N)N1OCCCOc1ccc(F)cc1Cl (configuration not stated) , is recorded selectivity ratio strictly lower than 50?
Result block: no

Query block: One more molecule: `CC1(C)NC(N)=NC(=N)N1OCCc1ccccc1`
Result block: yes

Query block: One more molecule: `CN(CCCON1C(N)=NC(N)=NC1(C)C)c1ccc(Cl)cc1`
Result block: no

More entries:
Query block: Given NC1=NC(c2ccccc2)N(OCCCOc2cc(Cl)c(Cl)cc2Cl)C(N)=N1 (configuration not stated) , is recorded selectivity ratio strictly lower than 50?
Result block: no

Query block: One more molecule: CC1N=C(N)N=C(N)N1OCCCOc1cc(Cl)c(Cl)cc1Cl (configuration not stated)
Result block: no

Query block: One more molecule: `CCN(CC)CCCON1C(N)=NC(N)=NC1(C)C`
Result block: no
